# TESTED_TARGET: Prostaglandin G/H synthase 1 (Ovis aries)
# PROTOCOL_SUMMARY: Inhibition of ovine COX1 assessed as reduction in PGF2alpha at 10 uM incubated for 2 mins using arachidonic acid as substrate by ELISA relative to control
RESULT_TYPE: inhibition (%)

Some compounds with recorded inhibition:
>>> meas_value("O=C1C=C(Nc2ccc(F)cc2)CC1")
43.5
>>> meas_value("O=C1C=C(N2CCCC2)CCC1")
12.5
>>> meas_value("CC(=O)N(C1=CC(=O)CCC1)c1ccc(Cl)cc1")
10.8
>>> meas_value("COc1ccc(NC2=CC(=O)CCC2)cc1")
10.7
>>> meas_value("CSc1ccc(NC2=CC(=O)CCC2)cc1")
12.8
>>> meas_value("O=C1C=C(NN2CCCCC2)CCC1")
11.3

1: O=C1C=C(NCc2ccco2)CC1
2: O=C1C=C(Nc2ccc(F)cc2)CCC1
For the pair 1 and 2 , which entry has the numerically smaller recorded inhibition? Select an item and report its label.
2
(2: 14.3%, 1: 30.5%)
